Every entry's value here was drawn from PubChem BioAssay AID1159580.

- test_summary: chemical genetic growth profiling, strain panel (AID 1159580);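 further: tested at 20 µM; growth read once vehicle control cultures reached saturation at 30 °C; 1 = growth at the plate median or of vehicle wells; lower values mean less growth of the strain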
- experimental_parameters: S. cerevisiae deletion strains, growth OD, locus YNL224C, strain SQS1, active compounds read low
The whole screen tested about 5,500 compounds, of which about 2,000 (36%) were called active. Roughly 18% stayed inconclusive and do not appear here. This is one part of the list.
Consider the cut-off 1. If the recorded normalized growth is strictly smaller, the label is 1; if not, the label is -1.

INSERT INTO results (compound, assigned_class) VALUES
  ('CN1CCc2cc(O)cc3c2[C@H]1Cc1ccc(O)c(O)c1-3', -1),
  ('CC12C(=O)OC(=O)C1(C)C1CCC2O1 (stereo not drawn)', 1),
  ('N.N.N.N.N.N.N.N.N.N.N.N.N.N.O.O.[Ru+4].[Ru+5].[Ru+5]', 1),
  ('CC1=C(/C=C/C(C)=C/C=C/C(C)=C/C(=O)O)C(C)(C)CCC1', -1),
  ('CC1CN(S(=O)(=O)c2cccc3cnccc23)CCN1 (stereo not drawn)', -1);

###

- test_summary: chemical genetic growth profiling, strain panel (AID 1159580);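 further: tested at 20 µM; growth read once vehicle control cultures reached saturation at 30 °C; 1 = growth at the plate median or of vehicle wells; lower values mean less growth of the strain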
- experimental_parameters: S. cerevisiae deletion strains, growth OD, locus YOR316C, strain cot1, active compounds read low
The campaign covered roughly 5,500 compounds. About 2,000 (36%) were called active. Roughly 18% stayed inconclusive and do not appear here. The list shows a part of the results.
Listing: normalized growth of selected compounds
measured_metric: normalized growth

INSERT INTO assay_data (compound, measured_metric, observed_value) VALUES
  ('COc1c(C(=O)O)ccc2c1CCC(C)(C)O2', 'normalized growth', '0.977 (inactive)'),
  ('Nc1ccc(S(=O)(=O)Nc2nccs2)cc1', 'normalized growth', '0.999 (inactive)'),
  ('CCOc1ccc2c(c1)C(C)=CC(C)(C)N2', 'normalized growth', '0.983 (inactive)'),
  ('CCOP(=S)(OCC)Oc1ccc2c(C)c(Cl)c(=O)oc2c1', 'normalized growth', '0.971 (inactive)'),
  ('OCC(S)CS (stereo not given)', 'normalized growth', '0.979 (inactive)');

###

- test_summary: chemical genetic growth profiling, strain panel (AID 1159580);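 further: tested at 20 µM; growth read once vehicle control cultures reached saturation at 30 °C; 1 = growth at the plate median or of vehicle wells; lower values mean less growth of the strain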
- experimental_parameters: S. cerevisiae deletion strains, growth OD, locus YKL190W, strain CNB1, active compounds read low
Among all 5,500 compounds or so, about 2,000 (36%) were called active. Another 18% or so got no clear call; they are omitted. The list shows a part of the results.
measured_metric: normalized growth

INSERT INTO assay_data (compound, observed_value) VALUES
  ('O=C(O)c1cc(=O)c(O)c2c(O)c(O)ccc2c1', 1),
  ('O=C1O[C@@H](CO)[C@H](O)[C@@H](O)[C@@H]1O', 0.999),
  ('NC(=O)c1cc[n+](CC2=C(C(=O)O)N3C(=O)C(NC(=O)C(c4ccccc4)S(=O)(=O)[O-])C3SC2)cc1 (stereo not given)', 0.996),
  ('COc1ccccc1N1CCN(Cc2ccc(F)cc2)CC1', 1.02),
  ('CC(COc1ccccc1)N(CCCl)Cc1ccccc1 (stereo not given)', 1.01),
  ('CN(Cc1cc(Br)cc(Br)c1N)C1CCCCC1', 1.02),
  ('Cc1ccc(-n2nc(-c3ccc(OC(F)(F)F)cc3)cc2NC(=O)Nc2ccc(OC(F)(F)F)cc2)cc1C', 1.02),
  ('NCc1ccc(S(N)(=O)=O)cc1', 1.01),
  ('NCCCCN=C(N)N', 1.01),
  ('CC1=C(/C=C/C(C)=C/C=C/C(C)=C/CO)C(C)(C)CCC1', 0.991),
  ('CCC(CCC(C)C1CCC2C3CC=C4C[C@@H](OC(C)=O)CC[C@]4(C)C3CC[C@]12C)C(C)C (stereo not given in full)', 1),
  ('CN(C)c1ccc(/C=N\NC(=O)CCc2ccc(O)cc2)c(Cl)c1', 1.01),
  ('Nc1nccs1', 0.992),
  ('CC(=O)C1=C(O)C2C3c4c[nH]c5cccc(c45)CC3C(C)(C)N2C1=O (stereo not given)', 0.99),
  ('CC[C@@H](C(=O)O)[C@@H]1O[C@@H]([C@@H](C)[C@H](O)[C@H](C)C(=O)[C@H](CC)[C@H]2O[C@]3(C=C[C@@H](O)[C@]4(CC[C@@](C)(C5CC[C@](O)(CC)[C@H](C)O5)O4)O3)[C@H](C)C[C@@H]2C)[C@@H](C)C[C@H]1C (stereo not given in full)', 0.295),
  ('C/C(=N/NC1=NCCN1)c1ccc(F)cc1', 1.01),
  ('C[C@H](COc1ccccc1)N[C@H](C)[C@H](O)c1ccc(O)cc1', 1),
  ('COc1ccc(-c2cc(C(F)F)nn2-c2ccc(S(N)(=O)=O)cc2)cc1F', 1),
  ('COC(=O)c1ccc(C#Cc2ccccc2)o1', 0.731),
  ('CCCNC(C)C(=O)Nc1ccccc1C (stereo not given)', 1),
  ('CN(C)CCCO[C@H]1[C@@H](C(O)CO)OC2OC(C)(C)O[C@@H]21 (stereo not given in full)', 0.97),
  ('CCOP(=S)(OCC)Oc1ccc2c(C)c(Cl)c(=O)oc2c1', 0.983),
  ('CC1=C(/C=C/C(C)=C/C=C/C(C)=C\C(=O)O)C(C)(C)CCC1', 0.989),
  ('CC(C)C1=CC2=CCC3[C@](C)(CCC[C@]3(C)C(=O)O)C2CC1 (stereo not given in full)', 0.958),
  ('Nc1c(Br)cc(Br)cc1CNC1CCC(O)CC1 (stereo not given)', 1.01);
